These measurements were taken from ChEMBL document CHEMBL1130174.

ASSAY: Oral bioavailability in rat
Assay type: ADME, organism-based
MEASUREMENT_SETUP: in vivo
Provide the recorded bioavailability for the entries that follow.
# unit: % | format: bare number

For record CCCN(CCN1C[C@H](c2ccc3c(c2)OCO3)[C@@H](C(=O)O)[C@@H]1c1ccc(OC)c(F)c1)S(=O)(=O)CCCCl (stereo in doubt; 15d) the listed bioavailability is 25

Entry CCCOc1ccc2c(c1)[C@@H](c1ccc(OC)cc1OCCO)[C@H](C(=O)O)[C@H]2c1ccc2c(c1)OCO2 — recorded bioavailability = 60

Noted for CCCc1cc(C(=O)O)ccc1OC(C(=O)NS(=O)(=O)c1ccc(C(C)C)cc1)c1ccc2c(c1)OCO2 [L-754142] : its bioavailability reads 60

* * *

Answer each item with its documented pIC50.
TESTED_TARGET: Endothelin receptor type B (Homo sapiens, UniProt P24530)
Sequence (P24530 whole entry): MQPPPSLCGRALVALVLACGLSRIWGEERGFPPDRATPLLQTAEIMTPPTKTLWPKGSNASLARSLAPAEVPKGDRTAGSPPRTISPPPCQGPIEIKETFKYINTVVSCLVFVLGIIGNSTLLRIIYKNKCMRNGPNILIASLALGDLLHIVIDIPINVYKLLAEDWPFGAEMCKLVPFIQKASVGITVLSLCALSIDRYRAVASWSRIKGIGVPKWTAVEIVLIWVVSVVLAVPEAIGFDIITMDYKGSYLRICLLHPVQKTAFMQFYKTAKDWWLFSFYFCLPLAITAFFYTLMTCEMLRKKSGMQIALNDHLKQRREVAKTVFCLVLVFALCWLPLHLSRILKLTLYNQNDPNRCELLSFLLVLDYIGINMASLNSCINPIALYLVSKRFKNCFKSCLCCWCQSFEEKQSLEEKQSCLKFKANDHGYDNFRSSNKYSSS
ASSAY: Binding assay performed using human Endothelin B receptor (hETB) expressed in chinese hamster ovary cells(CHO)
Assay type: cell-based
Notebook: values listed as pIC50 are -log10 of the concentration (mol/L).

In plain terms, CCCCCCS(=O)(=O)N(CCC)CCN1C[C@H](c2ccc3c(c2)OCO3)[C@@H](C(=O)O)[C@@H]1c1ccc(OC)c(F)c1 (stereo in doubt; 15c) has a documented pIC50 of 9.32

Measured pIC50 of CCCN(CCN1C[C@H](c2ccc3c(c2)OCO3)[C@@H](C(=O)O)[C@@H]1c1ccc(OC)c(F)c1)S(=O)(=O)CCCCl (stereo in doubt; 15d) : 9.85

Data point: CCCN(CCN1C[C@H](c2ccc3c(c2)OCO3)[C@@H](C(=O)O)[C@@H]1c1ccc(OC)c(F)c1)S(=O)(=O)CCCC(F)(F)F (stereo in doubt; 15e) ; pIC50 = 9.70

Data point: CCCCCS(=O)(=O)N(CCC)CCN1C[C@H](c2ccc3c(c2)OCO3)[C@@H](C(=O)O)[C@@H]1c1ccc(OC)c(F)c1 (stereo in doubt; 15b) ; pIC50 = 9.55

// pIC50 lookup, compound = CCCCS(=O)(=O)N(CCC)CCN1C[C@H](c2ccc3c(c2)OCO3)[C@@H](C(=O)O)[C@@H]1c1ccc(OC)c(F)c1 (stereo in doubt; 15a) , result: 9.33

* * *

ASSAY: Ratio of endothelin A receptor and endothelin B receptor.
Assign Ratio to each entry below.
Respond numerically, and do not add a unit to the figure.

Lookup result for CCCN(CCN1C[C@H](c2ccc3c(c2)OCO3)[C@@H](C(=O)O)[C@@H]1c1ccc(OC)cc1)S(=O)(=O)CCCCl ; measured Ratio: 3.1

For reference, reported Ratio for CCCCCS(=O)(=O)N(CCC)CCN1C[C@H](c2ccc3c(c2)OCO3)[C@@H](C(=O)O)[C@@H]1c1ccc(OC)c(OC)c1 stands at 32

Entry under test: CCCCCS(=O)(=O)N(CCC)CCN1C[C@H](c2ccc3c(c2)OCO3)[C@@H](C(=O)O)[C@@H]1c1ccc(OC)cc1 . Its Ratio was 7.2

Reported Ratio ( CCCCN(CCN1C[C@H](c2ccc3c(c2)OCO3)[C@@H](C(=O)O)[C@@H]1c1ccc(OC)cc1)S(=O)(=O)CCC ) = 30

Field Ratio (entry CCCCCCS(=O)(=O)N(CCC)CCN1C[C@H](c2ccc3c(c2)OCO3)[C@@H](C(=O)O)[C@@H]1c1ccc(OC)cc1 ) reads 10

The compound identified as CCCN(CCN1C[C@H](c2ccc3c(c2)OCO3)[C@@H](C(=O)O)[C@@H]1c1ccc(OC)cc1)S(=O)(=O)CC registered its Ratio at 79

get_value(item= CCCc1cc(C(=O)O)ccc1OC(C(=O)NS(=O)(=O)c1ccc(C(C)C)cc1)c1ccc2c(c1)OCO2 [L-754142] , readout=Ratio) returns 17

* * *

TESTED_TARGET: Endothelin receptor type B (Sus scrofa)
Sequence (P35463 whole entry): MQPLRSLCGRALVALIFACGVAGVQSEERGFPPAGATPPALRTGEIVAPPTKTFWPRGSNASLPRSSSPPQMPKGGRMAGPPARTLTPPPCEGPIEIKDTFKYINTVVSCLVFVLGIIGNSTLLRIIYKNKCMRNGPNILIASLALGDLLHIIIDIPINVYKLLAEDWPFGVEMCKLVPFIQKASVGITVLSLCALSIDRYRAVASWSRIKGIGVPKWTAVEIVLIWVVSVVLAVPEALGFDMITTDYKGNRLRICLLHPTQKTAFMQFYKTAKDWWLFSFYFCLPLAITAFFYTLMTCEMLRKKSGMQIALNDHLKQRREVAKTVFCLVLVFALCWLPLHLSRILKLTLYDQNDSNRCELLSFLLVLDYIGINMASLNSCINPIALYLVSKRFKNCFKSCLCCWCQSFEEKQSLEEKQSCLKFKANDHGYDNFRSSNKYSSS
Consider the cut-off 9 nM. If the recorded IC50 is strictly smaller, the label is rule met; if not, the label is rule not met.

Task item: Is the reported IC50 for CCCN(CCN1C[C@H](c2ccc3c(c2)OCO3)[C@@H](C(=O)O)[C@@H]1c1ccc(OC)cc1)S(=O)(=O)CCOC strictly below 9 nM?
Reply: rule not met

Task item: Hello, is IC50 of the following molecule strictly smaller than 9 nM? CCCS(=O)(=O)N(C)CCN1C[C@H](c2ccc3c(c2)OCO3)[C@@H](C(=O)O)[C@@H]1c1ccc(OC)cc1
Reply: rule not met

Task item: API: query returns whether the molecule falls strictly under 9 nM in IC50. Query: CCCN(CCN1C[C@H](c2ccc3c(c2)OCO3)[C@@H](C(=O)O)[C@@H]1c1ccc(OC)c(F)c1)S(=O)(=O)CC(C)C
Reply: rule met

Task item: Does CCCCCS(=O)(=O)N(CCC)CCN1C[C@H](c2ccc3c(c2)OCO3)[C@@H](C(=O)O)[C@@H]1c1ccc(OCOC)cc1 have IC50 strictly under 9 nM?
Reply: rule met

Task item: Given the entry CCCCCS(=O)(=O)N(CCC)CCN1C[C@H](c2ccc3c(c2)OCO3)[C@@H](C(=O)O)[C@@H]1c1ccc(F)c(F)c1 , would its reported IC50 be below 9 nM?
Reply: rule not met

Task item: Quick check: does CCCN(CCN1C[C@H](c2ccc3c(c2)OCO3)[C@@H](C(=O)O)[C@@H]1c1ccc(OC)cc1)S(=O)(=O)CC have IC50 under 9 nM?
Reply: rule not met

Task item: Confirm or reject: IC50 of CCCN(CCN1C[C@H](c2ccc3c(c2)OCO3)[C@@H](C(=O)O)[C@@H]1c1ccc(OC)cc1)S(=O)(=O)Cc1ccccc1 lies strictly below 9 nM
Reply: rule not met

Task item: # strict comparison: is reported IC50 < 9 nM? input = CCCCS(=O)(=O)N(CCC)CCN1C[C@H](c2ccc3c(c2)OCO3)[C@@H](C(=O)O)[C@@H]1c1ccc(OC)cc1
Reply: rule not met

Task item: Consider the molecule CCCN(CCN1C[C@H](c2ccc3c(c2)OCO3)[C@@H](C(=O)O)[C@@H]1c1ccc(OC)cc1)S(=O)(=O)c1ccc(OC)cc1 . Is its IC50 strictly less than 9 nM?
Reply: rule not met

Task item: A record lists CCCCCS(=O)(=O)N(CCC)CCN1C[C@H](c2ccc3c(c2)OCO3)[C@@H](C(=O)O)[C@@H]1c1ccc(OCCC)cc1 . Is its IC50 below 9 nM?
Reply: rule not met

Task item: Please state whether IC50 is below 9 nM for CCCCN(CCN1C[C@H](c2ccc3c(c2)OCO3)[C@@H](C(=O)O)[C@@H]1c1ccc(OC)cc1)C(=O)CCC
Reply: rule not met

Task item: Is IC50 of CCCCCS(=O)(=O)N(CCC)CCN1C[C@H](c2ccc3c(c2)OCO3)[C@@H](C(=O)O)[C@@H]1c1ccc(OC)cc1 strictly below 9 nM?
Reply: rule met

Task item: Please check: IC50 for CCCCCS(=O)(=O)N(CCC)CCN1C[C@H](c2ccc3c(c2)OCO3)[C@@H](C(=O)O)[C@@H]1c1ccc(OCC)c(F)c1 , strictly under 9 nM or not?
Reply: rule met

Task item: I'd appreciate it if you could check whether CCCCCS(=O)(=O)N(CCC)CCN1C[C@H](c2ccc3c(c2)OCO3)[C@@H](C(=O)O)[C@@H]1c1ccc(OC)c(F)c1 (stereo in doubt; 13e) has IC50 smaller than 9 nM.
Reply: rule met

* * *

Ki, UniProtKB P24530: measured values
# value in nM; strip the unit string

Ki reading for CCCOc1ccc2c(c1)[C@@H](c1ccc(OC)cc1OCC(=O)O)[C@H](C(=O)O)[C@H]2c1ccc2c(c1)OCO2 [SB-209670] : 18

CCCOc1ccc2c(c1)[C@@H](c1ccc(OC)cc1OCCO)[C@H](C(=O)O)[C@H]2c1ccc2c(c1)OCO2 yielded Ki of 110

* * *

Would you mind telling me the reported AUC of each entry?
Tested on: Rattus norvegicus
ASSAY: Total drug exposure is determined after oral dosing in rats.
Format: ADME, organism-based
Design: concentration or dose not given beside the values
MEASUREMENT_SETUP: in vivo
Dear colleague, please return just the value in ng·h/mL, with no unit written.

Record CCCN(CCN1C[C@H](c2ccc3c(c2)OCO3)[C@@H](C(=O)O)[C@@H]1c1ccc(OC)c(F)c1)S(=O)(=O)CCCCl (stereo in doubt; 15d) , field AUC: 2200

Just so you know, measured AUC for CCCCCS(=O)(=O)N(CCC)CCN1C[C@H](c2ccc3c(c2)OCO3)[C@@H](C(=O)O)[C@@H]1c1ccc(OC)c(F)c1 (stereo in doubt; 15b) came out at 11200

The compound CCCN(CCN1C[C@H](c2ccc3c(c2)OCO3)[C@@H](C(=O)O)[C@@H]1c1ccc(OC)c(F)c1)S(=O)(=O)CCCC(F)(F)F (stereo in doubt; 15e) showed AUC equal to 4300

The reported AUC of the compound CCCCCCS(=O)(=O)N(CCC)CCN1C[C@H](c2ccc3c(c2)OCO3)[C@@H](C(=O)O)[C@@H]1c1ccc(OC)c(F)c1 (stereo in doubt; 15c) was 2800
